Provide the recorded pIC50 for the entries that follow.
# Measurement target: UniProt:Q9UBN7
# Sequence (Q9UBN7 1-1215): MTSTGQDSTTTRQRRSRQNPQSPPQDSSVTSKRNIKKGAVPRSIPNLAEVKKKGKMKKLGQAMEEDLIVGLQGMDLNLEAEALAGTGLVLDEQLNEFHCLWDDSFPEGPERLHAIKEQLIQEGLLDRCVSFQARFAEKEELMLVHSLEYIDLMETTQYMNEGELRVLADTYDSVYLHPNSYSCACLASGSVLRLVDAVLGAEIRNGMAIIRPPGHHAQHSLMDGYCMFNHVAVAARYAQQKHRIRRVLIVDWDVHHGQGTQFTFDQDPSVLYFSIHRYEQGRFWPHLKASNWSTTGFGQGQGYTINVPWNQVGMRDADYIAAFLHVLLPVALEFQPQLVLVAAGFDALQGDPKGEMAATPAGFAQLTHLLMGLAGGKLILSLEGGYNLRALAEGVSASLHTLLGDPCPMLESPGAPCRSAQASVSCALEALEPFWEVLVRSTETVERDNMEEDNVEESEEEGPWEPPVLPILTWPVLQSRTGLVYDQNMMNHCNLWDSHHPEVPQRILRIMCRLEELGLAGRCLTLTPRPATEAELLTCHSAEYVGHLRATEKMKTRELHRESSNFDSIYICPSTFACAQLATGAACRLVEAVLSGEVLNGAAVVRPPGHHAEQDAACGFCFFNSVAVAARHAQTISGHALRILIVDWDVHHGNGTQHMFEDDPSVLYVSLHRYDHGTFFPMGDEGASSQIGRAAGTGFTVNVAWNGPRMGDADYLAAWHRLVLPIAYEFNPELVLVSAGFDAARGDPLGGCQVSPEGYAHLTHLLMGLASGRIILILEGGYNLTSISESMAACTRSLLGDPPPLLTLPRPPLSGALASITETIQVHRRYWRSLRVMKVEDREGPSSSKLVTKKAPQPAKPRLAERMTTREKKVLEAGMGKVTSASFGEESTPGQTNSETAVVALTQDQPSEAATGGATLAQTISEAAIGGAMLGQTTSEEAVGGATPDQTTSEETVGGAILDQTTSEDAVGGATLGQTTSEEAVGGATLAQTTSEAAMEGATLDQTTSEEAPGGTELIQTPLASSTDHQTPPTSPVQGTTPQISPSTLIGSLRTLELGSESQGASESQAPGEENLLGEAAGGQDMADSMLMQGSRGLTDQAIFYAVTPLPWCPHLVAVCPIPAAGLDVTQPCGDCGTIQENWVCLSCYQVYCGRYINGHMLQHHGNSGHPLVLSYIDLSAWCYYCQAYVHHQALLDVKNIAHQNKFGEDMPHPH
# Run description: In vitro HDAC inhibitory activity assay, recombinant HDAC6 (fluorogenic substrate ZMAL)
# Type: biochemical
# Parameters: purchased BPS Biosciences
Reminder that pIC50 means the negative base-10 logarithm of the concentration expressed in mol/L.

input: Report pIC50 for COc1ccc(C(=O)NO)cc1NC(=O)c1ccc(NC(=O)CCCCCNc2cccc3c2C(=O)N(C2CCC(=O)NC2=O)C3=O)cc1 (stereo not shown) [CRBN_1a] please.
output: 6.66

input: Next compound: COc1ccc(C(=O)NO)cc1NC(=O)c1ccc(CNC(=O)CCCCCCCNc2cccc3c2C(=O)N(C2CCC(=O)NC2=O)C3=O)cc1 (stereo not shown) [CRBN_1c]
output: 6.60

input: Next compound: Cc1ccc(C(=O)NO)cc1NCc1ccc(OCc2cn(CCCCCC(=O)Nc3cccc4c3C(=O)N(C3CCC(=O)NC3=O)C4=O)nn2)cc1 (stereo not shown) [CRBN_1d]
output: 5.17

input: Next compound: COc1ccc(C(=O)NO)cc1NC(=O)c1ccc(NC(=O)CCCCCCCNc2cccc3c2C(=O)N(C2CCC(=O)NC2=O)C3=O)cc1 (stereo not shown) [CRBN_1b]
output: 6.25
